Taken from patent US20230055005A1.

- experimentalSystem: T1, Bi-SEQ ID NO: 3, *H**Glu(Bi-PEG)*…laEA*NH2 (disulfide 6-11; not fully specified)
- T1 construct: Synthetic peptide; 12-27 of mature prothrombin with Gla at 25
- T1 peptide: {Glu(Bi-PEG)″}-NLERECVEETCSY[Gla]EA-NH2
- measurementNotes: ECL assay (Elecsys 2010), ruthenylated antibody and biotinylated peptide, streptavidin beads
Bridge positions count the residues as written; N and C are the ends. Square brackets hold non-standard residues; d marks the D form. Primed or numbered codes have the meaning given here. Glu(Bi-PEG)″ = Nδ-(N-biotinyl-3-(2-(2-(3-aminopropyloxy)-ethoxy)-ethoxypropyl)-L-glutamine, biotin-PEG linker residue; Gla = N[C@@H](CC(C(=O)O)C(=O)O)C(=O)O
recordedMetric: reactivity (signal normalized to Bi-SEQ ID NO:1) (%)

binder	obsValue
monoclonal anti-PIVKA-II antibody 13H7 (antibody, V domains shown, Recombinant rabbit IgG from B-cell cloning, expressed in HEK cells) VH: QSVEESGGRLVTPETPLTLTCTVSGFDLSRYAMGWVRQAPGKGLEYIGLIVSDGRTYYASWAKGRFTISKTSSTTVDLKMASPTTEDTATYYCYRNVSLWGQGTLVSVSE VL: DVVMTQTPSSVEAAVGGTVTIKCQASQSIGSNLAWYQQKPGQPPKLLIYSASTLASGVSSRFKGSGSGTEFTLTISDLECADAATYYCQSYAGISANIFYYAFGGGTEVVVM	107
